assay method text: AUC (24 hrs) in plasma in Listeria monocytogenes EGD-e infected BALB/c mouse central nervous system listeriosis model at 50 mg/kg, ip administered 36 hrs postinfection as single dose
Type: ADME, organism-based
Set-up: time < 24 hr, dose 50 mg/kg, route intraperitoneal
experimental endpoint: AUC at 24 h

Prompt: For the molecule shown here, "COc1c(N2C[C@@H]3CCCN[C@@H]3C2)c(F)cc2c(=O)c(C(=O)O)cn(C3CC3)c12" , give the reported AUC at 24 h.
Response: 27100 ng·h/mL
